system: MDA-MB-231 breast; assay: NCI-60 one-dose screen, 48 h (100 = growth as untreated, 0 = no growth, -100 = all killed); conditions: 10 µM unless noted
About 83,000 compounds went through this panel and 20% of them were active in at least one assay; those are over-represented in the sample as a whole.
Please go through the items and note down their growth.
The reply should contain only the number, in %.

Please list growth recorded for the compound `O=C(/C=C/c1ccc(Cl)c(Cl)c1)Nc1ncc(Cc2ccc(Cl)c(Cl)c2)s1`
97.1

Name the recorded growth of the compound listed here: `Brc1ccc(-c2cc(-c3ccc4c(c3)OCCO4)n[nH]2)s1`
41.9

Give reported growth value for `CC(=C(c1ccc(OCCN2CCCC2)cc1)c1ccc(OCCN2CCCC2)cc1)c1ccc(Cl)cc1`
-68.1

Report growth for `COc1ccc(-c2c(C(N)=O)c(N)n(Cc3nc4ccccc4[nH]3)c(=O)c2C#N)c(OC)c1`
92.1

Please supply the value of reported growth for the item `O=C(CSc1nc2ccccc2c(=O)n1-c1ccc(Cl)cc1)N/N=C/c1ccc(Oc2ccc(Cl)cc2)cc1`
30.4

Look up growth of `COc1ccc2c(c1)c(-c1nc(N)nnc1-c1c[nH]c3ccccc13)cn2C` and report it.
46.2

Note growth for the compound shown: `O=C(Nc1cccc(Cl)c1)Nc1nc2cc([N+](=O)[O-])ccc2o1`
61.4

For `O=C(CCCCCCNC(=O)C(O)(O)C(F)(F)F)Nc1ccc(Br)cc1` , write its growth.
28.4

Consider the compound CCOP(=O)(OCC)OC[C@]12CC[C@@H](C)[C@H](C)C1C1=CC[C@@H]3[C@@]4(C)CCCNC(C)(C)[C@@H]4CC[C@@]3(C)[C@]1(C)CC2 (some centres undefined) and give its recorded growth.
39

State its growth for this compound: `CC(=O)/C(N=Nc1ccc2oc(=O)ccc2c1)=C(\C)O`
61.2

Give recorded growth. `Cn1cc(-c2nn3cc(-c4ccncc4)nc3s2)c2cc(F)ccc21`
63.3

Return growth (reported value) for this compound: `Fc1ccc2nc(-c3cnn4cccnc34)sc2c1`
84.3

Find the measured growth of `Cc1ccc2c(n1)C(=O)C(Cl)=C(Nc1ccc(C(F)(F)F)cc1)C2=O` and report it.
76.4

Respond only with growth recorded for `COc1ccc(-c2cc(-c3ccc(N(C)C)cc3)n3c(n2)nc2ccccc23)cc1`
75.2

Quick one: give measured growth for `CC(=C(c1ccc(OCCN(C)C)cc1)c1ccc(OCCN(C)C)cc1)c1ccc(Cl)cc1`
-75.4

Return growth for the following compound: `O=C(NCCNc1cc(-c2cn(-c3ccccc3)nc2-c2cccc(O)c2)ccn1)Nc1cc(C(F)(F)F)cc(C(F)(F)F)c1`
92.9

Identify growth associated with the compound `CN(C)c1ccc(/C=N/Nc2nc(N/N=C/c3ccc(N(C)C)cc3)nc(N3CCCCC3)n2)cc1`
68.6

Give growth for the following compound: `O=C(/C=C/c1ccccc1Cl)Nc1ncc(Cc2cc(Cl)ccc2Cl)s1`
49.4

Read the entry `O=C1/C(=C/c2cc(F)cc(F)c2)Cc2cc3c(cc21)OCO3` and write its reported growth.
40.5

Could you please provide reported growth for `CNCCN(C)c1ccc(Nc2cc(NC3CC3)n3ncc(C#N)c3n2)cc1NC(C)=O` ? Thanks!
-6.44

Tell me its growth given `CCN1CCN(c2ccc(NC(=O)Nc3ccc4c(ccn4-c4ccnc(C(=O)NC)c4)c3)cc2C(F)(F)F)CC1` as the entry.
58.1

Identify measured growth corresponding to `CN1CCN(c2ccc(Nc3nc(NCCNS(=O)(=O)c4ccccc4)c4sccc4n3)cc2)CC1`
102

Item `Cc1ccc2c(n1)C(=O)C(Cl)=C(Nc1ccc(C)c(C)c1)C2=O` : provide growth
49.3

Assign growth to the following record: `C#CCOc1ccccc1/C=N/Nc1nc(-c2ccc(Cl)cc2)cs1`
86.4

Specify measured growth for CCCCCN1C(=O)/C(=c2\sc3n(c2=O)C2C(NN=3)N(CC)C(=O)N2CC)c2cccc(C)c21 (centres undefined) .
62.4

Note down growth recorded for O=C1CSC(c2cn(-c3ccccc3)nc2-c2ccc(Cl)cc2)N1c1ccccc1 (centres undefined)
107

# return recorded growth for entry `COc1ccccc1/C=C/C(=O)c1nnn(-c2ccc(F)cc2)c1C`
65.6

Respond only with growth recorded for CC(Nc1ncnc2ccc(-c3cnc(N)nc3)cc12)c1ccccc1 (centres undefined)
25.4

Write down growth measured for item `COC(=O)c1cccc(NC2=C(Cl)C(=O)C(C)=C(C)C2=O)c1`
36.5

Supply growth value. Item: CC[C@]12C=CCN3CC[C@]4(C(=C(C(=O)OC)C1)Nc1cc5c(cc14)[C@@H]1[C@H](O5)[C@@H](O)[C@@]4(CC)CC(C(=O)OC)=C5Nc6cc(O)ccc6[C@@]56CCN1C46)C32 (some centres undefined)
21

Supply recorded growth for `Cc1csc(/N=C(N)/N=C(\N)c2cccnc2)n1` here.
86.9

In one line, give reported growth of the entry `CCCCc1nc2c(N)nc3ccccc3c2n1Cc1ccc(OC)cc1` .
75.8

Fill in growth for record `Clc1ccc2[nH]cc(-c3cncn3CCc3ccc4c(c3)OCO4)c2c1`
65.8

Tell us which growth value is on record for `C/C(=N\NC(=O)Nc1ccccc1)c1nnn(-c2ccc([N+](=O)[O-])cc2)c1C`
106

Annotate the compound `Cc1ccc(C(=O)Nc2ccc(CNCCN3CCOCC3)c(C(F)(F)F)c2)cc1C#Cc1cnc2cccnn12` with its measured growth.
-18.5

Please indicate growth recorded for `O=C(CSc1nc2ccccc2c(=O)n1-c1ccccc1)Nc1ccc(S(=O)(=O)Nc2nccs2)cc1`
74.1

Input `CSc1ccc(/C(=N/N=C(N)N)c2ccc(Cl)cc2)cc1` , output reported growth.
7.57

Provide growth value for the following compound: `O=C1C(SCc2ccccc2)=C(Cl)CN1c1ccccc1`
93.1

Fill in growth for record `N#C/C(=C\c1ccc(-c2ccc(Cl)cc2)o1)C(=O)Nc1ncc(Cc2ccc(Br)cc2)s1`
3.41

----------
System: 786-0 renal
Assay: NCI-60 one-dose screen, 48 h
Conditions: 10 µM unless noted
Description: Cells are grown in 96 well plates and exposed to the test compound for 48 hours. Compounds are tested at a single concentration, which is 10^-5 M for most compounds. The reported endpoint is percent growth (GI% or GIPRCNT), where numbers from 0 - 100% represent growth inhibition, and numbers from -100% - 0 represent cell death. For example, a value of 40 represents 60% growth inhibition. A value of 0 means no net growth occurred over the course of the experiment. […]
The panel holds about 83,000 compounds, 20% with a hit somewhere; the sample as a whole holds those more often. Activity calls are given as the source filed them. Rule for the calls: active = growth percent below 10; inactive = the rest.
Your reply should match one of these outcome classes. active, inactive

I would be grateful if you could indicate the recorded call for `CN1CCN(Cc2ccc(NC(=O)c3cncc(C#Cc4cnc5ccc(OCCCS(C)(=O)=O)nn45)c3)cc2C(F)(F)F)CC1` .
active

Could you kindly confirm the outcome this assay logged for `Clc1cccc(/C=N/Nc2nc(N/N=C/c3cccc(Cl)c3)nc(N3CCOCC3)n2)c1` ?
inactive

Which outcome was entered for the compound `CC[C@]12C=CCN3CC[C@@]4(c5ccc(OC)cc5N(C)[C@H]4[C@@](O)(C(=O)OC)[C@@H]1OC(=O)CCN1CCc4ccccc4C1)[C@@H]32` in this test?
inactive

Hello, I am checking results. What call was entered for `Cc1ccc(C(=O)CSc2nnc(-c3ccc(-c4ccc(Cl)cc4)nc3C)o2)cc1` ?
inactive

----------
tested on: SK-MEL-2 melanoma; experiment: NCI-60 one-dose screen, 48 h (100 = growth as untreated, 0 = no growth, -100 = all killed); details: 10 µM unless noted
The panel holds about 83,000 compounds, 20% with a hit somewhere; the sample as a whole holds those more often.
Could you please report measured growth for the items listed next?
// units = %; emit number, no label

Name the value of growth reported for `Cn1c(SCC(=O)c2ccco2)nc2ccccc2c1=O` when tested on SK-MEL-2 melanoma.
106

Answer briefly: growth recorded on SK-MEL-2 melanoma for `CCN(CC)c1ccc(/C=N/NC(=O)c2ccc(NS(C)(=O)=O)cc2)cc1`
40.1

Report measured growth on SK-MEL-2 melanoma; entry: C/C(=C(/C)C1CC1CCNC1CCC(NC(=O)OC(C)(C)C)CC1)c1ccccc1 (centres undefined)
95.9

Would you please give the reported growth of `COc1ccc(/C(=N\NC(N)=S)c2ccc(Cl)cc2)cc1OC` with SK-MEL-2 melanoma?
-23.8

Jot down growth (SK-MEL-2 melanoma) of `CCCN1C=C/C(=C\C(=O)n2ccc3ccccc32)c2ccccc21` .
105

Provide measured growth on SK-MEL-2 melanoma for `O=C1/C(=C/c2cc(F)cc(F)c2)Cc2cc3c(cc21)OCO3` please.
44.3

State, for SK-MEL-2 melanoma, measured growth of the molecule listed here: `CC1(C)CC[C@]2(C(=O)NCCCCCCN(CCCN)CCCN)CC[C@]3(C)C(=CC[C@@H]4[C@@]5(C)CC[C@H](O)C(C)(C)[C@@H]5CC[C@]43C)[C@@H]2C1`
113

Please report growth with SK-MEL-2 melanoma for item `COC(=O)c1cccc(NC2=C(Cl)C(=O)C(C)=C(C)C2=O)c1` .
98

Provide growth, tested on SK-MEL-2 melanoma, for `CC1(C)CC[C@]23CC[C@]4(C)[C@H](CC[C@@H]5[C@@]6(C)CC[C@H](NCO)C(C)(C)[C@@H]6CC[C@]54C)[C@H]2[C@H]1OC3` .
97.2
